target: 5-hydroxytryptamine receptor 4 (Homo sapiens) (UniProt Q13639); test: Displacement of [3H]GR113808 from human 5-HT4R at 10 nM by radioligand binding assay
Sequence (Q13639 whole entry): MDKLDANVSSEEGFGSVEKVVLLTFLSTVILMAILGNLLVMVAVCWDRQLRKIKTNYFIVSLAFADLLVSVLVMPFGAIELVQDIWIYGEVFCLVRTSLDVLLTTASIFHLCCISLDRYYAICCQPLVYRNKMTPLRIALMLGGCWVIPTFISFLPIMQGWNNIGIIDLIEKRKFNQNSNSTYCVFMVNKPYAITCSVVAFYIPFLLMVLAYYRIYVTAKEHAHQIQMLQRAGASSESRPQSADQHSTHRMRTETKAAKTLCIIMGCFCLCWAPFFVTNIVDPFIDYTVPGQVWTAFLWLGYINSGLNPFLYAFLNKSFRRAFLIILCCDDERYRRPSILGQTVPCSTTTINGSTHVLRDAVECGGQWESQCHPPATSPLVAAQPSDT
Below: a set of entries, each annotated with reported inhibition.

| SMILES_STRING | inhibition |
| --- | --- |
| COc1cc(N)c(Cl)cc1C(=O)CCC1CCN(CC2CCCC2)CC1 | 58% |
| COc1cc(N)c(Cl)cc1C(=O)CCC1CCN(Cc2ccccc2)CC1 | 41% |
| COc1cc(N)c(Cl)cc1C(=O)CCC1CCN(CC2CCCCCC2)CC1 | 46% |
| COc1cc(N)c(Cl)cc1C(=O)CCC1CCN(CC2CCCCC2)CC1 | 73% |
| COc1cc(N)c(Cl)cc1C(=O)CCC1CCN(CC2CCNCC2)CC1 | 69% |

From: ChEMBL document CHEMBL3414476
